Values were extracted from PubChem BioAssay AID264.

System: nude mice, LX-1 lung xenograft intrarenal, tumor weight T/C
Test details: NCI In Vivo Anticancer Drug Screen. Data for tumor model Human Lung LX-1 Xenograft (intrarenal inoculation) in NU/NU Swiss (nude) mice
Assay setup: endpoint: mean tumor weight change; dose: 12.5 mg/kg/injection; schedule: Q04DX003 (sc); vehicle: saline; higher = larger tumour
Records with an inconclusive call do not appear.
Quantity name: T/C

Task: Provide one value: measured T/C of O=c1n(CC2CO2)c(=O)n(CC2CO2)n1CC1CO1 (centres undefined)
Output: 74 % of control

Task: Provide one value: measured T/C of O=c1[nH]cnc2c1ccn2C1OC(CO)C(O)C1O (centres undefined)
Output: 88 % of control

Task: Provide one value: measured T/C of CN(N=O)C(N)=O
Output: 19 % of control

Task: Provide one value: measured T/C of OCCN1CCN(CC/C=C2/c3ccccc3Sc3ccc(Cl)cc32)CC1
Output: 68 % of control

Task: Provide one value: measured T/C of ClCC[Se](Cl)(Cl)c1ccccc1
Output: 92 % of control

Task: Provide one value: measured T/C of ClCCCN1CCCCC1CCl (centres undefined)
Output: 88 % of control

Task: Provide one value: measured T/C of OCC1OC(n2cnc3cncnc32)C(O)C1O (centres undefined)
Output: 89 % of control

Task: Provide one value: measured T/C of CCOC(=O)NC1=C(N2CC2)C(=O)C(NC(=O)OCC)=C(N2CC2)C1=O
Output: 71 % of control

Task: Provide one value: measured T/C of COc1ccc(C(=O)C(CN(C)C)CN(C)C)cc1
Output: 68 % of control

###

Kindly supply the reported T/C values for the records listed here.
Tested on: nude mice, LX-1 lung xenograft intrarenal, tumor weight T/C
Test details: NCI In Vivo Anticancer Drug Screen. Data for tumor model Human Lung LX-1 Xenograft (intrarenal inoculation) in NU/NU Swiss (nude) mice
Assay setup: endpoint: mean tumor weight change; dose: 75.0 mg/kg/injection; schedule: Q04DX003 (sc); vehicle: saline; higher = larger tumour
Inconclusive results are not listed.

Task: Provide one value: measured T/C of C1CC[N-]CC1.C1CC[N-]CC1.C1CC[N-]CC1.[Cl][Rh]([Cl])[Cl]
Output: 78 % of control

Task: Provide one value: measured T/C of [Cl][Mn][Cl]
Output: 68 % of control

Task: Provide one value: measured T/C of O=P1(NCCCl)OCCCN1CCCl (stereo not drawn)
Output: 93 % of control

Task: Provide one value: measured T/C of O=C1C(O)=C(c2ccccc2)C(=O)C(O)=C1c1ccccc1
Output: 80 % of control

Task: Provide one value: measured T/C of CCCCCCCCCCCCCCCCP(=O)(OCCOCCCCCC)OCCOCCCCCC
Output: 114 % of control

Task: Provide one value: measured T/C of CN(N=O)C(=O)N[C@@H](C=O)[C@@H](O)[C@H](O)[C@H](O)CO
Output: 39 % of control

Task: Provide one value: measured T/C of O=C(O)C(O)C(O)C1[O][Sb][O]C1C(=O)O (stereo not drawn)
Output: 105 % of control

Task: Provide one value: measured T/C of [CH3][Sn]([CH3])([Cl])[S]CCN
Output: 82 % of control

Task: Provide one value: measured T/C of CS(=O)(=O)OCCCNCCCOS(C)(=O)=O
Output: 71 % of control

Task: Provide one value: measured T/C of COC1C(OC(=O)/C=C/C=C/C=C/C=C/C(=O)O)CCC2(CO2)C1C1(C)OC1CC=C(C)C (stereo not drawn)
Output: 76 % of control

Task: Provide one value: measured T/C of N=c1ccn2c(n1)OC1C(O)C(CO)OC12 (stereo not drawn)
Output: 95 % of control

Task: Provide one value: measured T/C of N=C1CCCS1
Output: 113 % of control

Task: Provide one value: measured T/C of OCC12COCN1COC2
Output: 102 % of control
